Target system: A2BAR (Homo sapiens, UniProt P29275)
Protocol details: cAMP accumulation in T24 cells endogenously expressing the A2BAR
Condition: EC50 cAMP accumulation, T24 cells, 500 nM A2BAR siRNA
Quantity kind: EC50 (nM)
The answer is to be given in nM; state only the numeric part.

Data request, read-out EC50, for N#Cc1c(N)nc(SCC(N)=O)c(C#N)c1-c1ccc(OCC2CC2)cc1
93

###

pEC50 for assorted molecules
Target system: A2BAR (Homo sapiens, UniProt P29275)
Protocol details: cAMP accumulation in HEK293 cells overexpressing the A2BAR
By convention, pEC50 is the negative base-10 log of a molar concentration.

Recorded results for 2 molecules are shown here.
- Molecule: "Nc1nc(OCCc2c[nH]c3cc(Br)ccc23)nc2c1ncn2[C@@H]1O[C@H](CO)[C@@H](O)[C@H]1O [MRS3997]"
  Target system: "A2BAR (Homo sapiens, UniProt P29275)"
  Quantity kind: "pEC50"
  Reading: 7.20
- Molecule: "N#Cc1c(N)nc(SCC(N)=O)c(C#N)c1-c1ccc(OCC2CC2)cc1 [BAY]"
  Target system: "A2BAR (Homo sapiens, UniProt P29275)"
  Quantity kind: "pEC50"
  Reading: 8.21

Entry OC[C@H]1O[C@@H](n2cnc3c(Nc4ccc(I)cc4)ncnc32)[C@H](O)[C@@H]1O [MRS5911, N^6-(4-iodophenyl)adenosine] has what pEC50?
7.60

###

Target system: mouse A2BAR (Mus musculus)
Sequence (Q60614 whole entry): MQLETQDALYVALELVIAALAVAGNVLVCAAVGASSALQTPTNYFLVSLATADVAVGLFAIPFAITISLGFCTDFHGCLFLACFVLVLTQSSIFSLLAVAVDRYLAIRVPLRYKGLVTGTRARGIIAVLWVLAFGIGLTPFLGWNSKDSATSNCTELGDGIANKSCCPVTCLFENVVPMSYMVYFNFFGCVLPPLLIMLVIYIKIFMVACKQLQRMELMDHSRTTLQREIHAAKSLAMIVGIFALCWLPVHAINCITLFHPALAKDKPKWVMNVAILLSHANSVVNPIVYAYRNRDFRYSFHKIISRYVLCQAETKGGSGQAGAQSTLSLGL
Protocol details: β-Arrestin2 translocation in PathHunter CHO cells
Condition: β-Arrestin pathway; operational model; CHO mouse A2BAR
Quantity kind: τ
Respond with the number and no other words.

# count of solved cases: 3
- Molecule: "OC[C@H]1O[C@@H](n2cnc3c(Nc4ccc(I)cc4)ncnc32)[C@H](O)[C@@H]1O"
  Reading: 1.04
- Molecule: "Nc1nc(OCCc2c[nH]c3cc(Br)ccc23)nc2c1ncn2[C@@H]1O[C@H](CO)[C@@H](O)[C@H]1O"
  Reading: 0.27
- Molecule: "N#Cc1c(N)nc(SCC(N)=O)c(C#N)c1-c1ccc(OCC2CC2)cc1"
  Reading: 0.25

Give the measured τ of CCNC(=O)[C@H]1O[C@@H](n2cnc3c(N)ncnc32)[C@H](O)[C@@H]1O [NECA, adenosine-5′-N-ethyluronamide] .
38.9

###

Target system: A2BAR (Homo sapiens, UniProt P29275)
Protocol details: Intracellular calcium mobilization in HEK293 cells
Condition: read-out: EC50 Calcium; HEK293 cells, endogenous A2BAR
Quantity kind: EC50 (nM)
Number in nM, nothing else.

Look up EC50 for this compound: Nc1ncnc2c1ncn2[C@@H]1O[C@H](C(=O)NC2CC2)[C@@H](O)[C@H]1O [CPCA, adenosine-5′-N-cyclopropyluronamide]
2620

###

Target system: A2BAR (Homo sapiens, UniProt P29275)
Protocol details: Intracellular calcium mobilization in T24 cells
Condition: read-out: EC50 Calcium; T24 cells
Quantity kind: EC50 (nM)
Numbers only; they are read as nM.

# query: EC50 of entry Nc1ncnc2c1ncn2[C@@H]1O[C@H](C(=O)NC2CC2)[C@@H](O)[C@H]1O [CPCA, adenosine-5′-N-cyclopropyluronamide]
1930

###

Target system: A2BAR (Homo sapiens)
Sequence (P29275 1-332): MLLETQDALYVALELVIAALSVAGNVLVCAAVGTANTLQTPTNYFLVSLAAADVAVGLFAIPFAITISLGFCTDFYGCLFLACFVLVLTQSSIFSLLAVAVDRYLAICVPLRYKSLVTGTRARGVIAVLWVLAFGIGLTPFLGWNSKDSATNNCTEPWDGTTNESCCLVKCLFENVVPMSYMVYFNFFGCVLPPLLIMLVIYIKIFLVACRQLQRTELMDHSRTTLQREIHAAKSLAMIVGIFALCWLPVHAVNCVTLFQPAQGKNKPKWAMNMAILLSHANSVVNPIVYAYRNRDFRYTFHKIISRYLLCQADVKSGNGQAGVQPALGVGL
Protocol details: cAMP accumulation in T24 cells endogenously expressing the A2BAR
Condition: EC50 cAMP accumulation, T24 cells, 50 nM A2BAR siRNA
Quantity kind: pEC50
// scale note: pEC50 = -log10(conc_M); give the bare number

pEC50 lookup needed for N#Cc1c(N)nc(SCC(N)=O)c(C#N)c1-c1ccc(OCC2CC2)cc1 , thanks.
6.90

Values were extracted from paper PMC4128710.
